Test system: Jurkat T cells
Format: cell-based, human
Details: IL-2 production level in treated group compared to control group; 48 hours treatment, then anti-CD3/anti-CD28 12 hours
# cutoff 30% applies to Relative changed percentage (%); >= gives t, < gives f

Is Relative changed percentage (%) for O=C(O)CC(O)C(=O)O (stereo not drawn) [Malic acid] at or above 30%?
t

Is Relative changed percentage (%) for [Cl][Hg][Cl] [MERCURY(II) CHLORIDE] at or above 30%?
f

Is Relative changed percentage (%) for [Cl-].[Cl-].[Mg+2] [MAGNESIUM CHLORIDE ANHYDROUS] at or above 30%?
t

Is Relative changed percentage (%) for O=C([O-])O.[Na+] [SODIUM BICARBONATE] at or above 30%?
t

Is Relative changed percentage (%) for NC[C@H](O)c1ccc(O)c(O)c1 [NOREPINEPHRINE] at or above 30%?
t

Is Relative changed percentage (%) for `N[C@@H](CC(=O)O)C(=O)O` at or above 30%?
f

Is Relative changed percentage (%) for `N[C@@H](Cc1c[nH]c2ccccc12)C(=O)O` at or above 30%?
f

Is Relative changed percentage (%) for CC(=O)N[C@H]1C(O)O[C@H](CO)[C@@H](O)[C@@H]1O (stereo partly drawn) at or above 30%?
f

Is Relative changed percentage (%) for C[C@]12CCC(=O)C=C1CC[C@@H]1[C@@H]2CC[C@@]2(C)[C@H]1CC[C@]2(O)C(=O)CO [11-DEOXYCORTISOL/Cortexolone, 11-DEOXYCORTISOL] at or above 30%?
f

Is Relative changed percentage (%) for `CCCCC/C=C\C/C=C\CCCCCCCC(=O)O` at or above 30%?
f

Is Relative changed percentage (%) for `CCO` at or above 30%?
f

Is Relative changed percentage (%) for `CCCCC/C=C\C/C=C\C/C=C\CCCCC(=O)O` at or above 30%?
f

Is Relative changed percentage (%) for O=C(O)CCCC[C@@H]1SC[C@@H]2NC(=O)N[C@@H]21 [BIOTIN, POWDER,, BIOTIN] at or above 30%?
t

Is Relative changed percentage (%) for `OC[C@H]1O[C@@](CO)(O[C@H]2O[C@H](CO)[C@@H](O)[C@H](O)[C@H]2O)[C@@H](O)[C@@H]1O` at or above 30%?
t

Is Relative changed percentage (%) for `COc1c(O)c(C)c(C/C=C(\C)CC/C=C(\C)CC/C=C(\C)CC/C=C(\C)CC/C=C(\C)CC/C=C(\C)CC/C=C(\C)CC/C=C(\C)CC/C=C(\C)CCC=C(C)C)c(O)c1OC` at or above 30%?
f

Is Relative changed percentage (%) for `C[C@@H](O)[C@H](N)C(=O)O` at or above 30%?
f

Is Relative changed percentage (%) for N[C@@H](Cc1cc(I)c(Oc2ccc(O)c(I)c2)c(I)c1)C(=O)[O-].[Na+] [′,5-TRIIODO-L-THYRONINE SODIUM SALT] at or above 30%?
f

* * *

Tested on: Jurkat T cells
Assay type: cell-based, human
Settings: IL-2 production level in treated group compared to control group; 48 hours treatment, then anti-CD3/anti-CD28 12 hours
Structures can show the parent of a compound that is named as a salt.
Kindly state Relative changed percentage (%) for each of the entries shown.
Use % as the unit, but write only the number.

Looking up `CC/C=C\C/C=C\C/C=C\C/C=C\CCCCC(=O)O` , I see its Relative changed percentage (%) listed as 109.3

Looking up Nc1ncnc2c1ncn2[C@@H]1O[C@H](COP(=O)([O-])OP(=O)([O-])OP(=O)(O)O)[C@@H](O)[C@H]1O.[Na+].[Na+] [Adenosine 5′-Triphosphate Disodium] , I see its Relative changed percentage (%) listed as −38.28

Looking up [F-].[Na+] [Sodium Fluoride] , I see its Relative changed percentage (%) listed as −43.81

Looking up O=S(=O)([O-])[O-].[Cu+2] [Copper sulfate] , I see its Relative changed percentage (%) listed as −26.32

Looking up `OCC(O)CO` , I see its Relative changed percentage (%) listed as 39.3621

Looking up `C[C@]12CCC(=O)C=C1CC[C@@H]1[C@@H]2C(=O)C[C@@]2(C)[C@H]1CC[C@]2(O)C(=O)CO` , I see its Relative changed percentage (%) listed as −12.29

Looking up Cc1cc(O)cc2c1O[C@](C)(CCC[C@H](C)CCC[C@H](C)CCCC(C)C)CC2 [(+)-DELTA-TOCOPHEROL] , I see its Relative changed percentage (%) listed as 41.42

Looking up O=C([O-])[O-].[Ca+2] [Calcium Carbonate] , I see its Relative changed percentage (%) listed as −8.75

Looking up `C[N+](C)(C)CC(=O)[O-]` , I see its Relative changed percentage (%) listed as 9.459

Looking up Cc1ncc(CO)c(CO)c1O.Cl [Pyridoxine Hydrochloride] , I see its Relative changed percentage (%) listed as −17.45

Looking up `NC(=O)CC[C@H](N)C(=O)O` , I see its Relative changed percentage (%) listed as 25.52

Looking up O=S(=O)([O-])[O-].[O]=[V+2] [Vanadylsulfate] , I see its Relative changed percentage (%) listed as 7.094

Looking up `CCCCCCCCCCCCCCCCCC(=O)O` , I see its Relative changed percentage (%) listed as 38.77

Looking up O=C([O-])CC(O)(CC(=O)[O-])C(=O)[O-].O=C([O-])CC(O)(CC(=O)[O-])C(=O)[O-].[Ca+2].[Ca+2].[Ca+2] [Calcium citrate] , I see its Relative changed percentage (%) listed as −14.58

Looking up [Cl-].[Cl-].[Sr+2] [strontium chloride] , I see its Relative changed percentage (%) listed as 30.89

Looking up O=C(CO)[C@@H](O)[C@H](O)[C@H](O)CO [D(−)FRUCTOSE] , I see its Relative changed percentage (%) listed as −25.52

Looking up N[C@H]1C(O)O[C@H](CO)[C@@H](O)[C@@H]1OS(=O)(=O)O (stereo partly drawn) [D-glucosamine 3-sulfate] , I see its Relative changed percentage (%) listed as 9.801

Looking up `N[C@@H](Cc1ccccc1)C(=O)O` , I see its Relative changed percentage (%) listed as −17.2378

Looking up `COC1=C(OC)C(=O)C(C/C=C(\C)CC/C=C(\C)CC/C=C(\C)CC/C=C(\C)CC/C=C(\C)CC/C=C(\C)CC/C=C(\C)CC/C=C(\C)CC/C=C(\C)CCC=C(C)C)=C(C)C1=O` , I see its Relative changed percentage (%) listed as 26.54

Looking up `NC(=O)C[C@H](N)C(=O)O` , I see its Relative changed percentage (%) listed as 28.4787

Looking up NC(=O)c1cccnc1 [Niacinamide] , I see its Relative changed percentage (%) listed as 95.23

Looking up `CCCCC/C=C\C/C=C\C/C=C\C/C=C\CCCC(=O)O` , I see its Relative changed percentage (%) listed as 4.583

Looking up C[C@H](O)C(=O)[O-].[Na+] [L(+)LACTIC ACID SODIUM] , I see its Relative changed percentage (%) listed as 5.082

Looking up O=C([O-])[C@@H](O)[C@@H](O)[C@H](O)[C@@H](O)C(=O)[O-].[Ca+2] [Calcium d-glucarate] , I see its Relative changed percentage (%) listed as −12.14

Looking up [Cl][Sn][Cl] [TIN(II) CHLORIDE/Tin, TIN(II) CHLORIDE] , I see its Relative changed percentage (%) listed as 18.86

Looking up CC1=C(/C=C/C(C)=C/C=C/C(C)=C/C=C/C=C(C)/C=C/C=C(C)/C=C/C2=C(C)CCCC2(C)C)C(C)(C)CCC1 [all trans B carotene] , I see its Relative changed percentage (%) listed as 35.08

Looking up OC[C@H]1OC(O)[C@H](O)[C@@H](O)[C@H]1O (stereo partly drawn) [D(+)-GALACTOSE ANHYDROUS] , I see its Relative changed percentage (%) listed as 35.84

Looking up CC(=O)OCC[N+](C)(C)C.[Cl-] [ACE[…]] , I see its Relative changed percentage (%) listed as −8.939

Looking up `COc1cc(CNC(=O)CCCC/C=C/C(C)C)ccc1O` , I see its Relative changed percentage (%) listed as 1.661

Looking up [O]=[Zn] [Zinc Oxide] , I see its Relative changed percentage (%) listed as 3.627

Looking up `N[C@@H](Cc1cc(I)c(Oc2cc(I)c(O)c(I)c2)c(I)c1)C(=O)O` , I see its Relative changed percentage (%) listed as 18.7243

Looking up `CCCCCCCC/C=C\CCCCCCCCCCCC(=O)O` , I see its Relative changed percentage (%) listed as 10.71

Looking up `O=c1[nH]c(=O)c2[nH]c(=O)[nH]c2[nH]1` , I see its Relative changed percentage (%) listed as −6.651

Looking up O=C(O)C(=O)O [OXALIC ACID SODIUM SALT] , I see its Relative changed percentage (%) listed as −16.88

Looking up `CCCCCC/C=C\CCCCCCCC(=O)O` , I see its Relative changed percentage (%) listed as 54.63

Looking up `Cc1ncc(CO)c(CO)c1O` , I see its Relative changed percentage (%) listed as 11.1111

Looking up `CC[C@H](C)[C@@H]1NC(=O)[C@H](Cc2ccc(O)cc2)NC(=O)[C@@H](N)CSSC[C@@H](C(=O)N2CCC[C@H]2C(=O)N[C@@H](CC(C)C)C(=O)NCC(N)=O)NC(=O)[C@H](CC(N)=O)NC(=O)[C@H](CCC(N)=O)NC1=O` , I see its Relative changed percentage (%) listed as −6.991

// provenance: patent US20250221953A1
